Reported AUC by item:
- PROTOCOL: In vivo mouse pharmacokinetics, paired oral co-dosing, plasma and brain
- Design: species or system mice
- STATED CONDITIONS: plasma, 10 mg/kg po co-dosed, 0.25-6 hr sampling
VALUE TYPE: AUC (ng·h/mL)

{"COMPOUND": "[2H]C([2H])([2H])OC[C@@]1(O)CC[C@@]2(C)[C@@H](CC[C@@H]3[C@@H]2CC[C@]2(C)[C@@H](C(=O)Cn4ccnc4)CC[C@@H]32)C1 [Example 3]", "VALUE REPORTED": 11300}
{"COMPOUND": "[2H]C(C(=O)[C@@]1([2H])CC[C@H]2[C@@H]3CC[C@H]4C[C@@](O)(COC([2H])([2H])[2H])CC[C@]4(C)[C@H]3CC[C@@]21C)n1ccnc1 (stereo partly drawn) [Example 5]", "VALUE REPORTED": 8900}
{"COMPOUND": "[2H]c1nc([2H])n(CC(=O)[C@H]2CC[C@H]3[C@@H]4CC[C@H]5C[C@@](O)(COC)CC[C@]5(C)[C@H]4CC[C@]23C)c1[2H] [Example 2]", "VALUE REPORTED": 10300}
{"COMPOUND": "COC[C@@]1(O)CC[C@@]2(C)[C@@H](CC[C@@H]3[C@@H]2CC[C@]2(C)[C@@H](C(=O)Cn4ccnc4)CC[C@@H]32)C1 [Example 1]", "VALUE REPORTED": 11700}
{"COMPOUND": "[2H]c1nc([2H])n(C([2H])C(=O)[C@@]2([2H])CC[C@H]3[C@@H]4CC[C@H]5C[C@@](O)(COC([2H])([2H])[2H])CC[C@]5(C)[C@H]4CC[C@@]32C)c1[2H] (stereo partly drawn) [Example 6]", "VALUE REPORTED": 8200}
{"COMPOUND": "[2H]c1nc([2H])n(CC(=O)[C@H]2CC[C@H]3[C@@H]4CC[C@H]5C[C@@](O)(COC([2H])([2H])[2H])CC[C@]5(C)[C@H]4CC[C@]23C)c1[2H] [Example 4]", "VALUE REPORTED": 9220}
